# Subject Of Test: M1 muscarinic receptors expressed in CHO cells (Homo sapiens)
# Construct: expressed in transfected cells; host or cells: CHO (CHO-hM1, stably transfected)
# Sequence (P11229 1-460): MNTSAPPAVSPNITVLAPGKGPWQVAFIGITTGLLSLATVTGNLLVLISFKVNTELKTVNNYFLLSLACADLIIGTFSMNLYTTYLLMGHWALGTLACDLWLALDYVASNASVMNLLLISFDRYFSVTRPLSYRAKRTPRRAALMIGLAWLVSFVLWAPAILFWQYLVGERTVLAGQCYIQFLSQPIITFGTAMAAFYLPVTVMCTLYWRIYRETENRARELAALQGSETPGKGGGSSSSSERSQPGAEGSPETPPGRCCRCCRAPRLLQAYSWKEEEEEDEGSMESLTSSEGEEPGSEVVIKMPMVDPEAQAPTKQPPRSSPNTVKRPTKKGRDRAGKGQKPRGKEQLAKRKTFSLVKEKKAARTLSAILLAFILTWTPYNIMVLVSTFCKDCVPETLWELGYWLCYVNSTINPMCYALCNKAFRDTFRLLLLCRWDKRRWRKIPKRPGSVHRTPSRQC
# Run Description: [3H]-arachidonic acid release screen with and without ACh and modulator
# Format: cell-based
# Experimental Context: 10 μM modulator, no ACh; Table 1
Binary call on Stimulation of [3H]AA release, No ACh (fraction of stimulation above the control) with cut-off 0.07: strictly below means y, and equality or higher means n.

Record excerpt, results attached:
# Compound, Group Label
measured = [
    ("CCCCc1oc2ccccc2c1C(=O)c1cc(I)c(OCC[N+](CC)(CC)CC)c(I)c1 [Compound 2, N-ethylamiodarone, reference compound]", "y"),
    ("COc1ccc(Cn2cc(C(=O)O)c(=O)c3ccccc32)cc1 [BQCA, reference compound]", "n"),
    ("CCCCc1oc2ccc(NS(C)(=O)=O)cc2c1C(=O)c1ccc(OCCCN(CCCC)CCCC)cc1 [Dronedarone, reference compound]", "n"),
    ("CCCCc1oc2ccccc2c1C(=O)c1ccc(OCCN(CC)CC)cc1 [Compound 6c]", "y"),
    ("CCCCc1oc2ccccc2c1C(=O)c1cc(I)c(OCCN(CC)C(=O)c2ccccc2)c(I)c1 [Compound 5b]", "y"),
]

In: # check: Stimulation of [3H]AA release, No ACh (fraction of stimulation above the control) < 0.07 for COc1ccc(CN2C(=O)C(=O)c3ccccc32)cc1Br [Compound 8d]
Out: y

In: # check: Stimulation of [3H]AA release, No ACh (fraction of stimulation above the control) < 0.07 for COc1cccc(CN2C(=O)C(=O)c3ccccc32)c1 [Compound 8j, 1-(3-methoxybenzyl)indoline-2,3-dione]
Out: y

In: # check: Stimulation of [3H]AA release, No ACh (fraction of stimulation above the control) < 0.07 for COc1c(Br)cc(CN2C(=O)C(=O)c3ccccc32)cc1Br [Compound 8c]
Out: n

In: # check: Stimulation of [3H]AA release, No ACh (fraction of stimulation above the control) < 0.07 for CCCCc1oc2ccccc2c1C(=O)c1ccc(OC)cc1 [Compound 6a]
Out: y
